assay: qHTS assay to identify small molecule HDAC inhibitors (AID 1259364); details: HCT-116 HDAC-Glo I/II luminescence, 2 h; series mostly up to 92.4 µM;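 note: wild-type HCT-116 cells with endogenous class I/II HDAC activity; top concentration of the series differs between compounds; % is set by controls: 0 for no effect and ±100 for the full control effect; nearly all actives have a fitted effect of over 45% in size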
Inconclusive results are not listed. Calls of active or inactive are those of the source. Calls come from the whole dose curve; as a rule, active = well fitted inhibition curve with a large enough effect in the repeat runs; inconclusive = weak or mixed curves; inactive = flat fitted curve, though single readings scatter.
recorded-metric: activity change, negative = inhibition

COC(=O)c1ccc2cc(C(=O)OC)ccc2c1 : -8.76% [at 19 µM] (inactive)

Here is another molecule to look at.
Lookup: Find the recorded activity change, negative = inhibition belonging to "CN(C)C(=O)NC1(c2ccccc2)CCN(CCC[C@]2(c3ccc(Cl)c(Cl)c3)CCCN(C(=O)c3ccccc3)C2)CC1" and report it.
Found: -4.11% [at 19 µM] (inactive)

----------
assay: qHTS assay to test for compound auto fluorescence at 460 nm (blue) in HEK293 cells (AID 720678); settings: blue autofluorescence 405/460 nm; series mostly up to 91.3 µM; note: % is set by controls: 0 for no effect and ±100 for the full control effect
Activity calls are given as the source filed them. Calls follow the shape of the dose curve; as a rule, active = well fitted curve in the direction sought with a large enough effect in the repeat runs; inconclusive = weak or mixed curves; inactive = flat fitted curve, though single readings scatter.
recorded-metric: fluorescence, % of triamterene

Sample answers from the record:
CC(=O)N(CC(O)CN(C(C)=O)c1c(I)c(C(=O)NCC(O)CO)c(I)c(C(=O)NCC(O)CO)c1I)c1c(I)c(C(=O)NCC(O)CO)c(I)c(C(=O)NCC(O)CO)c1I (stereo not given) : 0.0832% [at 18.6 µM] (inactive)
CN1C(=O)CC(c2ccccc2)C1=O (stereo not given) : inactive
C[C@@H]1CN(c2c(F)c(N)c3c(=O)c(C(=O)O)cn(C4CC4)c3c2F)C[C@H](C)N1 : inactive
CCCCC1CCC(=O)O1 (stereo not given) : inactive

Attention now shifts to the item below.
Lookup: For the molecule shown here, CCN(CC)CC1CCCCN1CC(=O)N1c2ccccc2C(=O)Nc2cccnc21 (stereo not given) , give the reported fluorescence, % of triamterene.
Found: inactive

----------
test: qHTS assay for small molecule agonists of the antioxidant response element (ARE) signaling pathway - cell viability counter screen (AID 743203); settings: ARE-bla HepG2 viability, CellTiter-Glo luminescence, 16 h; series mostly up to 73.3 µM; note: nearly all actives have a fitted effect of over 55% in size
Inconclusive results are not listed. Activity calls are given as the source filed them. The call rests on the fitted dose curve.
A correct response names exactly one class from 1 (yes) = active, 0 (no) = inactive

Previously resolved entries follow.
CC(C)OC(C)C : 0 (no)
CN1CCN(C2=Nc3ccccc3Oc3ccc(Cl)cc32)CC1 : 0 (no)
Cc1c(-c2ccccc2)oc2c(C(=O)OCCN3CCCCC3)cccc2c1=O : 0 (no)
CCN(CC)CCOc1ccc(Cc2ccccc2)cc1 : 0 (no)
FC(F)(F)C(Cl)(Cl)Cl : 0 (no)

Lookup: What was the test verdict on "CC(C)Nc1nc(N)nc(Cl)n1" ?
Found: 0 (no)

Lookup: What about this molecule? "FC(F)(F)C(F)(F)C(F)(F)C(F)(F)C(F)(F)C(F)(F)C(F)(F)C(F)(F)Br"
Found: 0 (no)

Lookup: Check "COc1nc(C)nc(NC(=O)NS(=O)(=O)c2ccccc2OCCCl)n1" too.
Found: 0 (no)

Lookup: Do the same for "CC(C)O" please
Found: 0 (no)

Lookup: Subsequent entry: "CCCCNc1ccc(C(=O)OCCN(CC)CC)cc1"
Found: 0 (no)

Lookup: Now consider "O=C(O[C@@H](C(=O)O)[C@@H](OC(=O)c1ccccc1)C(=O)O)c1ccccc1" .
Found: 0 (no)

Lookup: Subsequent entry: "COc1cc(C)ccc1C(C)C"
Found: 0 (no)

Lookup: How about "CN(C)Cc1ccccc1" ?
Found: 0 (no)

Lookup: Then what about the molecule "CCOC(=O)CS" ?
Found: 0 (no)

Lookup: // next record "O=C1C=CC(=O)O1"
Found: 0 (no)

Lookup: Same for "O=C(O)[C@@H]1CSCN1"
Found: 0 (no)

Lookup: Try this molecule next: "CN1CCN(N)CC1"
Found: 0 (no)

Lookup: Can you check CC(C)C(=O)OCC(C)(C)C(O)C(C)C (stereo not given) next?
Found: 0 (no)

Lookup: Note, next up: "CC(C)CCCCCCc1ccc(OCCOCCO)cc1"
Found: 0 (no)

Lookup: Request: "Cc1nc(N)nc(N)c1-c1ccc(Cl)c(Cl)c1"
Found: 1 (yes)

Lookup: Now give it for "Cc1cc(S(=O)(=O)O)c(N)cc1Cl" too.
Found: 0 (no)

Lookup: // query: "CCNCCO"
Found: 0 (no)

Lookup: Could you do the same for "Cc1ccc(C=O)s1" , please?
Found: 0 (no)

Lookup: Now this one: "CO[C@@]1(NC(=O)CSCC#N)C(=O)N2C(C(=O)O)=C(CSc3nnnn3C)CS[C@@H]21"
Found: 0 (no)

Lookup: Another molecule: "CC(C)C1=CC2=CC[C@@H]3[C@](C)(CCC[C@@]3(C)C(=O)O)[C@H]2CC1"
Found: 0 (no)

Lookup: Next record, please: "CCOc1ccc2nc(N)sc2c1"
Found: 0 (no)

Lookup: Same thing, different molecule: "CCOC(=O)[C@H](CCc1ccccc1)N[C@@H](C)C(=O)N1Cc2cc(OC)c(OC)cc2C[C@H]1C(=O)O"
Found: 0 (no)

Lookup: Field entry: "CN1CCN(c2c(F)cc3c(=O)c(C(=O)O)cn(CCF)c3c2F)CC1"
Found: 0 (no)

----------
assay: qHTS assay to identify small molecule antagonists of the estrogen receptor alpha (ER-alpha) signaling pathway using the BG1 cell line (AID 743080); details: BG1Luc4E2 ERE-luciferase antagonist mode, luminescence; series mostly up to 70.3 µM;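 note: BG1 cells stimulated with 17beta-estradiol alongside compound; % is set by controls: 0 for no effect and ±100 for the full control effect; nearly all actives have a fitted effect of over 25% in size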
Records with an inconclusive call do not appear. Activity calls are given as the source filed them. Calls follow the shape of the full dose curve.
recorded-metric: outcome

Some compounds with recorded outcome:
CCCNC(C)(C)COC(=O)c1ccccc1 : inactive
CCCCCCCCCC/C=C/C#N : inactive
CC(C)C(=O)OCC(C)(C)C(O)C(C)C (stereo not given) : inactive
Cc1c[nH]c(=S)[nH]c1=O : inactive

Lookup: Requested read-out: outcome. Entry: "C=C(C)C(=O)OCCOP(=O)(O)O"
Found: inactive

Lookup: Moving on to CNCCC(Oc1ccccc1OC)c1ccccc1 (stereo not given)
Found: inactive

Lookup: Next record, please: "CC(C)O"
Found: inactive

Lookup: Subsequent entry: "FC(F)(F)C(Cl)(Cl)Cl"
Found: inactive

Lookup: Another compound to look at: "NS(=O)(=O)c1cc(-c2nn[nH]n2)c(NCc2cccs2)cc1Cl"
Found: inactive

----------
Experiment: qHTS assay to identify small molecule antagonists of the androgen receptor (AR) signaling pathway using the MDA cell line in the presence of 0.5 nM R1881 - cell viability counter screen (AID 1259242); note: % is set by controls: 0 for no effect and ±100 for the full control effect; nearly all actives have a fitted effect of over 45% in size
Details: MDA-kb2 viability, CellTiter-Fluor protease fluorescence, 16 h; series mostly up to 92.4 µM
Text: U.S. Tox21 Program National Center for Advancing Translational Sciences [NCATS] NIH Chemical Genomics Center [NCGC] U.S. Environmental Protection Agency [EPA] National Institutes of Environmental Health Sciences [NIEHS] National Toxicology Program [NTP] U.S. Food and Drug Administration [FDA] Tox21 Assay Overview: Androgen receptor (AR) is an important member of the nuclear receptor family. Its signaling plays a critical role in AR-dependent prostate cancer and other androgen related diseases. […]
Inconclusive results are not listed. Activity calls are given as the source filed them. Calls follow the shape of the dose curve; as a rule, active = well fitted cell-killing curve with a large enough effect in the repeat runs; inconclusive = weak or mixed curves, or effect the other way; inactive = flat fitted curve, though single readings scatter.
recorded-metric: viability change, negative = cytotoxic

Look over these answered cases.
COc1ccccc1OCC(O)COC(N)=O (stereo unspecified) : inactive
OCc1c2ccccc2cc2ccccc12 : inactive
CC(C)(C)c1ccc(OC(=O)c2ccccc2O)cc1 : inactive
O=S(=O)(O)C(F)(F)F : inactive
OCCN1CCN(CCO)CC1 : inactive

We next turn to a different compound, shown below.
Lookup: What value of measured viability change, negative = cytotoxic is listed for CCCC1CCC(=O)O1 (stereo unspecified) ?
Found: inactive

----------
Measured Potency of individual entries
Test: A CellTox Green Cytotoxicity Assay to monitor cytotoxicity in HepG2 cells - 32 hour (AID 1224883); note: potency is the fitted concentration of half-maximal effect; nearly all actives have a fitted effect of over 50% in size
Conditions: CellTox Green fluorescence; series mostly up to 76.8 µM
Description: National Center for Advancing Translational Sciences [NCATS] NIH Chemical Genomics Center [NCGC] U.S. Environmental Protection Agency [EPA] National Institutes of Environmental Health Sciences [NIEHS] National Toxicology Program [NTP] Cell-based models are critical for drug discovery. […] Viable cells produce no appreciable increases in fluorescence. Therefore, the fluorescence signal produced by the binding interaction with dead cell DNA is proportional to cytotoxicity. […]
Records with an inconclusive call do not appear. The source made the active and inactive calls. Calls follow the shape of the dose curve; as a rule, active = well fitted activation curve with a large enough effect in the repeat runs; inconclusive = weak or mixed curves; inactive = flat fitted curve, though single readings scatter.

CCCCOc1cc(C(=O)NCCN(CC)CC)c2ccccc2n1 : 23.9 µM (active)
O=C1CCCCCCCCCCC(=O)OCCO1 : 24.5 µM (active)
Cn1cnc2c(F)c(Nc3ccc(Br)cc3Cl)c(C(=O)NOCCO)cc21 : 0.0379 µM (active)

Lookup: Fill blank: measured Potency of the molecule "CC(C)=CCC[C@](C)(O)[C@@H]1CC=C(C)CC1" is ____.
Found: 43.6 µM (active)

Lookup: Then what about the molecule "CCCCCCCCCCCCOCCOS(=O)(=O)O" ?
Found: 54.9 µM (active)
